Values were extracted from patent EP0405273A2.

- assay-info: Solubilization test (time for complete dissolution in water)
- Assay type: physicochemical
- recorded-conditions: 250 mg ground sample in 250 ml pure water at 26 ± 2°C, stirred at 350 to 360 rpm, stirring and standing repeated every 30 seconds
Peptide text beside a SMILES is read from it.
Collected time required for the sample to dissolve completely values appear next to each entry.

COC(=O)[C@H](Cc1ccccc1)NC(=O)[C@@H](N)CC(=O)O [Example 4] (H-Asp-Phe-OMe)	≤ 5 min

Let us move to another entry and its time required for the sample to dissolve completely.
Data request: Recorded time required for the sample to dissolve completely of COC(=O)[C@H](Cc1ccccc1)NC(=O)[C@@H](N)CC(=O)O [Example 5] (H-Asp-Phe-OMe) , please.
Data returned: ≤ 5 min

* * *

- assay-info: Solubilization test (time for complete dissolution in water)
- Assay type: physicochemical
- recorded-conditions: 250 mg ground sample in 250 ml pure water at 26 ± 2°C, stirred at 350 to 360 rpm, stirring and standing repeated every 30 seconds
Peptide text beside a SMILES is read from it.
quantity-kind: time required for the sample to dissolve completely

// solved cases for time required for the sample to dissolve completely follow
COC(=O)[C@H](Cc1ccccc1)NC(=O)[C@@H](N)CC(=O)O [Example 2] (H-Asp-Phe-OMe)	≤ 5 min
COC(=O)[C@H](Cc1ccccc1)NC(=O)[C@@H](N)CC(=O)O [Comparative Example, reference compound] (H-Asp-Phe-OMe)	25 min
COC(=O)[C@H](Cc1ccccc1)NC(=O)[C@@H](N)CC(=O)O [Example 3] (H-Asp-Phe-OMe)	≤ 5 min

Let us move to another entry and its time required for the sample to dissolve completely.
Data request: Recorded time required for the sample to dissolve completely of COC(=O)[C@H](Cc1ccccc1)NC(=O)[C@@H](N)CC(=O)O [Example 1] (H-Asp-Phe-OMe) , please.
Data returned: ≤ 5 min
